Some compounds, each annotated with its measured logP.
experimental-details: Partition coefficient, logP of compound by RP-HPLC analysis
Format: physicochemical
condition-parameters: octanol/water; read-out: logP

| compound | logP |
| --- | --- |
| CC(C)Cc1ccc(C(C)C(=O)O)cc1 (configuration not stated) [IBUPROFEN] | 2.97 |
| Cc1nc(OCC(=O)N(C)C2CCN(CC(C)(C)O)CC2)nc(C)c1N | 0.7 |
| CN(C(=O)COc1ccc(Cl)nn1)C1CCN(CC(F)(F)F)CC1 | 4 |
| C[C@@H]1C[C@H]2[C@@H]3CCC4=CC(=O)C=C[C@]4(C)[C@@]3(F)[C@@H](O)C[C@]2(C)[C@@]1(O)C(=O)CO [DEXAMETHASONE] | 2.82 |
| Cc1nc(OCC(=O)N(C)C2CN(Cc3ccccc3)CC2F)nc(C)c1N (configuration not stated) | 3.7 |
| Cc1nc(OCC(=O)N(C)C2CCN(Cc3ccccc3)C2)nc(C)c1N (configuration not stated) | 2.6 |
| Cc1nc(OCC(=O)N(C)[C@H]2CN(Cc3ccccc3)C[C@@H]2O)nc(C)c1N (relative stereo) | 2.4 |
| Cc1nc(OCC(=O)N(C)C2CCN(CC3CC3(F)F)CC2)nc(C)c1N.Cl (racemic) | 2.2 |
| Cc1nc(OCC(=O)N2CC[C@@H]3[C@H]2CN3Cc2ccccc2)nc(C)c1N | 2.8 |
| Cc1nc(OCC(=O)N(C)C2CCN(CC(F)F)CC2)nc(C)c1N | 2 |
| Cc1nc(OCC(=O)N(C)C2CCN(C3(C)COC3)CC2)nc(C)c1N | 1.2 |
| Cc1nc(OCC(=O)N(C)C2CN(Cc3ccccc3)C2)nc(C)c1N | 2.1 |

Ref: ChEMBL document CHEMBL4622926
